The values you see were collected from patent US20110262529A1.

- assayedTarget: HLA-A*0201 (human), P04439
- protocolDetails: T2 cell HLA-A*0201 stabilisation, affinity category by BL50
Consider the following binders; for each one, report its BL50.

input: For YLSSVLLAL (modifications not checked) [pp1a-1652] , write its BL50.
output: < 100 µM

input: For CLDAGINYV (modifications not checked) [pp1a-2187] , write its BL50.
output: < 100 µM

input: For MLLTFLTSL (modifications not checked) [pp1a-3560] , write its BL50.
output: < 100 µM

input: For SLQVCVQTV (modifications not checked) [pp1a-1139] , write its BL50.
output: < 100 µM

input: For VLGSLAATV (modifications not checked) [pp1a-4219] , write its BL50.
output: < 100 µM

input: For LLCVLAALV (modifications not checked) [pp1a-2755] , write its BL50.
output: 100 to 200 µM

input: For LLFITGNTL (modifications not checked) [pp1a-3745] , write its BL50.
output: 100 to 200 µM

input: For KLNIKLLGI (modifications not checked) [pp1a-3816] , write its BL50.
output: < 100 µM
